# pIC50 per entry
# Target Or Test System: human CYP17 (Homo sapiens, UniProt P05093)
# Sequence (P05093 whole entry): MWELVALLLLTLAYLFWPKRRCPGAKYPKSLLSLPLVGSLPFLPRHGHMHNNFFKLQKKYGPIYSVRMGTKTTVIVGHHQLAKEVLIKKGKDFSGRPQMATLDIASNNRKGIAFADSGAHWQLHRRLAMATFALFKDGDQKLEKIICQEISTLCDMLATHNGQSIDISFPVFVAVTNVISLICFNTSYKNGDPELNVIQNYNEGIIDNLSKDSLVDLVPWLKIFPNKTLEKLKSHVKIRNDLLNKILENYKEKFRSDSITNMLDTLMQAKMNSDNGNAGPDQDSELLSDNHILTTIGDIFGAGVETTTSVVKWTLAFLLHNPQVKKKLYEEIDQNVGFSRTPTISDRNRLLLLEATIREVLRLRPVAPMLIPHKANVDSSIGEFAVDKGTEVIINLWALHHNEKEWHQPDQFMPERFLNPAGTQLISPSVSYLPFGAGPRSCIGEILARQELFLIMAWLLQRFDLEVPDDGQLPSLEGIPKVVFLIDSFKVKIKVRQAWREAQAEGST
# Assay Details: Cell-based human CYP17 inhibition assay, LNCap-CYP17 cells
# Conditions Used: 16 hours at 37° C.
# Protocol: Cell-Based Human CYP17 Inhibition Assay A. Materials • 1. H295R Adrenocortical Carcinoma Cells and Growth Media: The media for the H295R Adrenocortical carcinoma cells [NCI-H295A, ATCC Number CRL-2128, American Type Culture Collection, Manassas, Va., US] […] The plates were incubated overnight (16 hours) at 37° C. […] Following the incubation for 30 minutes, readings for the radiotracer were taken using a Microbeta® trilux.
pIC50: −log10 of the molar value.

CCC(c1ccc(-c2ccccc2O)cn1)n1ccnc1 (stereo not shown) ... 5.00 to 6.70
CCC(c1ccc(-c2ccc(O)cc2)o1)n1ccnc1 (stereo not shown) ... > 7.30
CCOC(=O)c1ccc(-c2ccc(C(CC)n3ccnc3)nc2)cc1 (stereo not shown) ... 5.00 to 6.70
CCC(c1ccc(-c2cccc(O)c2)cn1)n1ccnc1 (stereo not shown) ... 6.70 to 7.30
CCC(c1cnc(-c2ccc(O)cc2)s1)n1ccnc1 (stereo not shown) ... 5.00 to 6.70

Q: Give the reported value of pIC50 for this record: CCC(c1ccc(-c2ccc(OC)cc2)o1)n1ccnc1 (stereo not shown)
Ans: 6.70 to 7.30

Q: Give the reported value of pIC50 for this record: CCC(c1ccc(-c2cccc(OC)c2)cn1)n1ccnc1 (stereo not shown)
Ans: 6.70 to 7.30

Q: Give the reported value of pIC50 for this record: CCC(c1ccc(-c2ccccc2OC)cn1)n1ccnc1 (stereo not shown)
Ans: 5.00 to 6.70

Q: Give the reported value of pIC50 for this record: CCC(c1cnc(-c2ccc(OC)cc2)s1)n1ccnc1 (stereo not shown)
Ans: 5.00 to 6.70

Q: Give the reported value of pIC50 for this record: CC(c1ccc(-c2ccc(O)cc2)s1)n1ccnc1 (stereo not shown)
Ans: 6.70 to 7.30
